# reported AC50; entries follow
Molecular target: PKR R510Q (Homo sapiens, UniProt P30613, R510Q)
Sequence (P30613 whole entry R510Q): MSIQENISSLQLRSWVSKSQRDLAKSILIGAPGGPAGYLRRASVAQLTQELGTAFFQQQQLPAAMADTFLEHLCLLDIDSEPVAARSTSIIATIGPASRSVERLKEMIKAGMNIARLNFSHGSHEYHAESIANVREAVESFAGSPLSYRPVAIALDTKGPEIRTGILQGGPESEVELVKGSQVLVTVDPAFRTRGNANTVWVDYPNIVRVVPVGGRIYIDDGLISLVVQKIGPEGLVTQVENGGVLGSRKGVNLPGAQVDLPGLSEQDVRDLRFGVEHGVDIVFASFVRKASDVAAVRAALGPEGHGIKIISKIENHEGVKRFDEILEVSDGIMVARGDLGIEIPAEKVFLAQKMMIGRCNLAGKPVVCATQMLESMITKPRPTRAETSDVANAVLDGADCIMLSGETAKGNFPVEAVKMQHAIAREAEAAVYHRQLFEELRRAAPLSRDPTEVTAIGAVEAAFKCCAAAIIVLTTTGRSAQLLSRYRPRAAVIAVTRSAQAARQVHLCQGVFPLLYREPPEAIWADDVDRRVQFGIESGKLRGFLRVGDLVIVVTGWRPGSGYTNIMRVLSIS
Assay: PKR mutant assay (R510Q), AC50, LDH/NADH-coupled, absorbance at 340 nm
Type: biochemical
Details: Table 2; enzyme assay; read-out: PK R510Q AC50

>  <compound>
Cn1c2nc([S+](C)[O-])sc2c2cnn(Cc3cccc4c3CCN4)c(=O)c21 (stereo not shown) [Compound 79]

>  <experimental.target>
PKR R510Q (Homo sapiens, UniProt P30613, R510Q)

>  <measured.result>
< 300 nM

$$$$

AC50 reading for Cn1c2nc(S(C)(=O)=O)sc2c2cnn(Cc3cccc4[nH]ncc34)c(=O)c21 [Compound 92] : 301 to 800 nM

AC50 reading for CNc1cccc(Cn2ncc3c4sc(C)nc4n(C)c3c2=O)c1 [Compound 70] : < 300 nM

AC50 reading for CCc1nc2c(s1)c1cnn(Cc3cccc(OC)c3)c(=O)c1n2C [Compound 39] : < 300 nM

AC50 reading for Cn1c2nc(Cc3cccc(C#N)c3)sc2c2cnn(Cc3cccc4[nH]ncc34)c(=O)c21 [Compound 99] : 301 to 800 nM

AC50 reading for COc1cccc(Cn2ncc3c4sc([S+]([O-])c5ccccc5)nc4n(C)c3c2=O)c1 (stereo not shown) [Compound 35] : 301 to 800 nM

AC50 reading for COc1cccc(Cn2ncc3c4sc(Cc5ccc(C)cc5)nc4n(C)c3c2=O)c1 [Compound 32] : < 300 nM

AC50 reading for CCOC(=O)c1cccc(Cn2ncc3c4sc(C)nc4n(C)c3c2=O)c1 [Compound 10] : > 800 nM

AC50 reading for Cn1c2nc(Cc3ccc(C#N)cc3)sc2c2cnn(Cc3cccc4[nH]ncc34)c(=O)c21 [Compound 93] : > 800 nM

AC50 reading for Cn1c2nc(Cc3csc(CO)n3)sc2c2cnn(Cc3cccc4[nH]ncc34)c(=O)c21 [Compound 168] : < 300 nM

AC50 reading for Cn1c2nc(NC(=O)Cc3cc[nH]n3)sc2c2cnn(Cc3cccc4[nH]ncc34)c(=O)c21 [Compound 180] : > 800 nM

AC50 reading for Cn1c2nc([S+](C)[O-])sc2c2cnn(Cc3cccc4c3CCNC4)c(=O)c21 (stereo not shown) [Compound 80] : < 300 nM

AC50 reading for COc1cccc(Cn2ncc3c4sc(C)nc4n(C)c3c2=O)c1 [Compound 1] : < 300 nM

---

Molecular target: PKR R510Q (Homo sapiens, UniProt P30613, R510Q)
Assay: PKR mutant assay (R510Q), AC50, LDH/NADH-coupled, absorbance at 340 nm
Details: Table 4; AC50, enzyme assay; read-out: PK R510Q
pEC50: −log10 of the molar value.
readout.kind: pEC50

Reference set, count: 3
>  <structure.smiles>
Cn1c2nc(Cc3cc(F)[nH]n3)sc2c2cnn(Cc3cccc4[nH]ncc34)c(=O)c21

>  <readout.kind>
pEC50

>  <measured.result>
> 6.52

$$$$
>  <structure.smiles>
Cn1c2nc(Cc3cccc4[nH]nnc34)sc2c2cnn(Cc3cccc4[nH]ncc34)c(=O)c21

>  <readout.kind>
pEC50

>  <measured.result>
> 6.52

$$$$
>  <structure.smiles>
Cn1c2nc(Cc3ccccn3)sc2c2cnn(CC3CCOCC3)c(=O)c21

>  <readout.kind>
pEC50

>  <measured.result>
< 6.10

$$$$

pEC50 reading for Cn1c2nc(Cc3cnn[nH]3)sc2c2cnn(Cc3cccc4[nH]ncc34)c(=O)c21 : > 6.52

pEC50 reading for Cn1c2nc(Cc3cc[nH]n3)sc2c2cnn(Cc3ccc4nc[nH]c4n3)c(=O)c21 : > 6.52

pEC50 reading for Cn1c2nc(Cc3cnco3)sc2c2cnn(Cc3cccc4[nH]ncc34)c(=O)c21 : 6.10 to 6.52

pEC50 reading for COc1cc(Cc2nc3c(s2)c2cnn(Cc4cccc5[nH]ncc45)c(=O)c2n3C)ccn1 : > 6.52

pEC50 reading for C#CCn1ncc2c3sc(Cc4ccccn4)nc3n(C)c2c1=O : > 6.52

pEC50 reading for COc1ncc(Cc2nc3c(s2)c2cnn(Cc4cccc5[nH]ncc45)c(=O)c2n3C)cn1 : < 6.10
